# Test summary: Therapeutic index, ratio of HC50 for human RBC to MIC for Bacillus subtilis DSM 347
# Format: toxicity
# Assay conditions: human red blood cells versus Bacillus subtilis DSM 347
Assign labels as follows, please: Yes for selectivity ratio below 0.7; No for selectivity ratio equal to or exceeding 0.7.

Cc1sc2cc1C1=C(CCC1)c1cc(sc1C)C(=O)[C@H]1CCCN1C(=O)[C@H](C(C)C)NC(=O)[C@H](CCCN)NC(=O)[C@H](C(C)C)NC(=O)[C@@H]1CCCN1C(=O)[C@@H](Cc1ccccc1)NC(=O)[C@H](C(C)C)NC(=O)[C@H](CCCN)NC(=O)[C@H](CCNC(=O)C(C)C)NC2=O :: No
Cc1sc2cc1C1=C(CCC1)c1cc(sc1C)C(=O)[C@H]1CCCN1C(=O)[C@H](CC(C)C)NC(=O)[C@H](CCCCN)NC(=O)[C@H](C(C)C)NC(=O)[C@H](CCCCN)NC(=O)[C@H](CC(C)C)NC(=O)[C@H](CCCCN)N(C)C(=O)[C@@H](Cc1ccccc1)NC(=O)[C@H](C(C)C)NC(=O)[C@H](CCCCN)NC(=O)[C@H](CC(C)C)NC(=O)[C@H](CCCCN)NC(=O)[C@H](C(C)C)NC2=O :: Yes
CC(C)C[C@@H]1NC(=O)[C@H](CCCCN)NC(=O)[C@H](C(C)C)NC(=O)C2=CC3=C4CCCC4=C4C=C(S[C@]4(C)[C@@]3(C)S2)C(=O)[C@H]2CCCN2C(=O)[C@H](CC(C)C)NC(=O)[C@H](CCCCN)NC(=O)[C@H](C(C)C)NC(=O)[C@H](CCCCN)N(C)C(=O)[C@@H](Cc2ccccc2)NC1=O :: No

Please indicate whether the reported selectivity ratio of Cc1sc2cc1C1=C(CCC1)c1cc(sc1C)C(=O)[C@H]1CCCN1C(=O)[C@H](CC(C)C)NC(=O)[C@H](CCCCN)NC(=O)[C@H](C(C)C)NC(=O)[C@H](CCCCN)NC(=O)[C@H](CC(C)C)NC(=O)[C@@H]1CCCN1C(=O)[C@@H](Cc1ccccc1)NC(=O)[C@H](C(C)C)NC(=O)[C@H](CCCCN)NC(=O)[C@H](CC(C)C)NC(=O)[C@H](CCCCN)NC(=O)[C@H](C(C)C)NC2=O is strictly below 0.7.
Yes

Please indicate whether the reported selectivity ratio of Cc1sc2cc1C1=C(CCC1)c1cc(sc1C)C(=O)[C@H]1CCCN1C(=O)[C@H](C(C)C)NC(=O)[C@H](CCCN)NC(=O)[C@H]([C@H](O)C(C)C)NC(=O)[C@@H]1CCCN1C(=O)[C@@H](Cc1ccccc1)NC(=O)[C@H](C(C)C)NC(=O)[C@H](CCCN)NC(=O)[C@H](C(C)C)NC2=O is strictly below 0.7.
No

* * *

# Test system: Bacillus subtilis
# Test summary: Antimicrobial activity against Bacillus subtilis DSM 347 after 22 hrs by resazurin dye based spectrophotometry
# Type: functional
# Assay conditions: DSM 347, 22 h
Non-standard residues stand in square brackets, D forms with d. Residues, ends and D or L forms follow the SMILES beside them. Orn = NCCC[C@H](N)C(=O)O
Collected MIC values appear next to each entry.
// units = µM; emit number, no label

Answer with the recorded MIC of CC(C)[C@@H]1NC(=O)C2=CC3=C4CCCC4=C4C=C(S[C@]4(C)[C@@]3(C)S2)C(=O)[C@H]2CCCN2C(=O)[C@H]([C@@H](C)O)NC(=O)[C@H](CCCN)NC(=O)[C@H](C(C)C)NC(=O)[C@@H]2CCCN2C(=O)[C@@H](Cc2ccccc2)NC(=O)[C@H](C(C)C)NC(=O)[C@H](CCCN)NC1=O only.
51

Answer with the recorded MIC of CC(C)[C@@H]1NC(=O)[C@H](CCCN)NC(=O)[C@H]([C@H](O)C(C)C)NC(=O)C2=CC3=C4CCCC4=C4C=C(S[C@]4(C)[C@@]3(C)S2)C(=O)[C@H]2CCCN2C(=O)[C@H](C(C)C)NC(=O)[C@H](CCCN)NC(=O)[C@H]([C@H](O)C(C)C)NC(=O)[C@@H]2CCCN2C(=O)[C@@H](Cc2ccccc2)NC1=O only.
12

Answer with the recorded MIC of CC[C@H](C)[C@@H]1NC(=O)c2cc(c(C)s2)C2=C(CCC2)c2cc(sc2C)C(=O)[C@H]2CCCN2C(=O)[C@H](CC(C)C)NC(=O)[C@H](CCCN)NC(=O)[C@H]([C@@H](C)CC)NC(=O)[C@@H]2CCCN2C(=O)[C@H]2CCCN2C(=O)[C@H](CC(C)C)NC(=O)[C@H](CCCN)NC1=O only.
2

Answer with the recorded MIC of CC(C)[C@@H]1NC(=O)C2=CC3=C4CCCC4=C4C=C(S[C@]4(C)[C@@]3(C)S2)C(=O)[C@H]2CCCN2C(=O)[C@H]([C@H](O)C(C)C)NC(=O)[C@H](CCCN)NC(=O)[C@H](C(C)C)NC(=O)[C@@H]2CCCN2C(=O)[C@@H](Cc2ccccc2)NC(=O)[C@H](C(C)C)NC(=O)[C@H](CCCN)NC1=O only.
25

Answer with the recorded MIC of Cc1sc2cc1C1=C(CCC1)c1cc(sc1C)C(=O)[C@H]1CCCN1C(=O)[C@H](C(C)C)NC(=O)[C@H](CCCN)NC(=O)[C@H]([C@H](O)C(C)C)NC(=O)[C@@H]1CCCN1C(=O)[C@@H](Cc1ccccc1)NC(=O)[C@H](C(C)C)NC(=O)[C@H](CCCN)NC(=O)[C@H]([C@H](O)C(C)C)NC2=O only.
3

Answer with the recorded MIC of C[C@]12SC3=CC1=C1CCCC1=C1C=C(S[C@@]12C)C(=O)[C@H]1CCCN1C(=O)[C@H](CCCCN)NC(=O)[C@H](C12CC4CC(CC(C4)C1)C2)NC(=O)[C@H](CCCN)NC(=O)[C@@H]1CCCN1C(=O)[C@@H](Cc1ccccc1)NC(=O)[C@H](CCCN)NC(=O)[C@H](C12CC4CC(CC(C4)C1)C2)NC(=O)[C@H](CCCN)NC3=O only.
3

Answer with the recorded MIC of CC(C)[C@@H]1NC(=O)[C@H](CCCN)NC(=O)[C@H]([C@H](O)C(C)C)NC(=O)C2=CC3=C4CCCC4=C4C=C(S[C@]4(C)[C@@]3(C)S2)C(=O)[C@H]2CCCN2C(=O)[C@H](C(C)C)NC(=O)[C@H](CCCN)NC(=O)[C@H](C(C)C)NC(=O)[C@@H]2CCCN2C(=O)[C@@H](Cc2ccccc2)NC1=O only.
13

Answer with the recorded MIC of CC(C)C[C@@H]1NC(=O)[C@H](CCCN)NC(=O)[C@H](C(C)C)NC(=O)[C@@H]2CCCN2C(=O)[C@@H](Cc2ccccc2)NC(=O)[C@H](CC(C)C)NC(=O)[C@H](CCCN)NC(=O)[C@H](C(C)C)NC(=O)[C@@H]2CCCN2C(=O)[C@@H](Cc2ccccc2)NC1=O (cyclo(V[Orn]L[dF]PV[Orn]L[dF]P)) only.
1.8

Answer with the recorded MIC of Cc1sc2cc1C1=C(CCC1)c1cc(sc1C)C(=O)[C@H]1CCCN1C(=O)[C@H](CC(C)C)NC(=O)[C@H](CCCCN)NC(=O)[C@H](C(C)C)NC(=O)[C@H](CCCCN)NC(=O)[C@H](CC(C)C)NC(=O)[C@H](CCCCN)N(C)C(=O)[C@@H](Cc1ccccc1)NC(=O)[C@H](C(C)C)NC(=O)[C@H](CCCCN)NC(=O)[C@H](CC(C)C)NC(=O)[C@H](CCCCN)NC(=O)[C@H](C(C)C)NC2=O only.
4

Answer with the recorded MIC of Cc1sc2cc1C1=C(CCC1)c1cc(sc1C)C(=O)[C@H]1CCCN1C(=O)[C@H](CCCCN)NC(=O)[C@H](C13CC4CC(CC(C4)C1)C3)NC(=O)[C@H](CCCN)NC(=O)[C@@H]1CCCN1C(=O)[C@@H](Cc1ccccc1)NC(=O)[C@H](CCCN)NC(=O)[C@H](C13CC4CC(CC(C4)C1)C3)NC(=O)[C@H](CCCN)NC2=O only.
3

Answer with the recorded MIC of CC(C)NC(=O)C[C@@H]1NC(=O)C2=CC3=C4CCCC4=C4C=C(S[C@]4(C)[C@@]3(C)S2)C(=O)[C@H]2CCCN2C(=O)[C@H](C(C)C)NC(=O)[C@H](CCCN)NC(=O)[C@H](C(C)C)NC(=O)[C@@H]2CCCN2C(=O)[C@@H](Cc2ccccc2)NC(=O)[C@H](C(C)C)NC(=O)[C@H](CCCN)NC1=O only.
49

Answer with the recorded MIC of CC(C)[C@@H]1NC(=O)C2=CC3=C4CCCC4=C4C=C(S[C@]4(C)[C@@]3(C)S2)C(=O)[C@H]2CCCN2C(=O)[C@H](C(C)C)NC(=O)[C@H](CCCN)N(C)C(=O)[C@H](C(C)C)NC(=O)[C@@H]2CCCN2C(=O)[C@@H](Cc2ccccc2)N(C)C(=O)[C@H](C(C)C)NC(=O)[C@H](CCCN)NC1=O only.
6

Answer with the recorded MIC of Cc1sc2cc1C1=C(CCC1)c1cc(sc1C)C(=O)[C@H]1CCCN1C(=O)[C@H](CC(C)C)NC(=O)[C@H](CCCN)NC(=O)[C@H](C(C)C)NC(=O)[C@@H]1CCCN1C(=O)[C@@H](Cc1ccccc1)NC(=O)[C@H](CC(C)C)NC(=O)[C@H](CCCN)NC(=O)[C@H](CCCN)NC2=O only.
2

Values were extracted from ChEMBL document CHEMBL4257585.
